Source of measurements: patent US8808702B2

- Test system: K562 (chronic myelogenous leukaemia)
- assay_method_text: Effect of compounds on tumor cell lines (assay of Latham et al.), K562
- Type: cell-based
- condition_notes: K562 cells, 96 hours after treatment, 1 μM to 100 μM; read-out: K 562 potency (IC50)
pIC50: −log10 of the molar value.
metric: pIC50

Field: example entries. Status: answers known.
compound	pIC50
Cc1ccc(CSC(=Cc2c(O)cc(O)cc2O)C(=O)c2ccc(Cl)cc2)cc1	4.00 to 4.30
O=C(/C(=C\c1ccc(Cl)cc1)SCc1ccc(Br)cc1)c1ccccc1Cl	5.00 to 6.00
O=C(C(=Cc1ccc(F)c([N+](=O)[O-])c1)SCc1ccc(Br)cc1)c1ccc(C(=O)N2CCN(CCO)CC2)cc1	≥ 6.00
CN1CCN(c2ccc(C=C(SCc3ccc(Br)cc3)C(=O)c3ccc(C(=O)O)cc3)cc2[N+](=O)[O-])CC1	5.00 to 6.00
CCOc1cc(C=C(SCc2ccc(Cl)cc2Cl)C(=O)c2ccc(Cl)cc2)ccc1O	5.00 to 6.00
Cc1ccc(CSC(=Cc2sccc2C)C(=O)c2ccc(Cl)cc2)cc1	4.60 to 5.00

Tell me pIC50 reported for Cc1ccc(CSC(=Cc2ccc(Br)cc2)C(=O)c2ccc(Cl)cc2)cc1
5.00 to 6.00

Tell me pIC50 reported for Cc1ccc(CS/C(=C/c2ccc(F)c([N+](=O)[O-])c2)C(=O)c2ccc(C(=O)O)cc2)cc1 [Example 347]
≥ 6.00

----------
- Tested on: DU145 (prostate cancer)
- assay_method_text: Effect of compounds on tumor cell lines (assay of Latham et al.), DU145
- Type: cell-based
- condition_notes: DU145 cells, 96 hours after treatment, 1 μM to 100 μM; read-out: DU 145 potency (IC50)
- Description: The effect of the compounds of the invention on tumor cells was determined by the assay described by Latham et al., Oncogene 12:827-837 (1996). Tumor cells K562 (chronic myelogenous leukaemia) or DU145 (prostate cancer) were plated in 12-well dishes at a cell density of 2.5×10^4 cells well. […] When necessary, the total number of viable cells was determined by trypsinizing the wells and counting the number of viable cells, as determined by trypan blue exclusion, using a hemacytometer. […]
pIC50: −log10 of the molar value.
Items are presented alongside their recorded pIC50.

compound	pIC50
O=C(C(=Cc1ccc(Cl)cc1)SCc1ccc(F)cc1)c1ccc(Cl)cc1 [Example 256]	4.60 to 5.00

Tell me pIC50 reported for COc1ccc(C=C(SCc2ccc(Cl)cc2)C(=O)c2ccc(Br)cc2)cc1 [Example 226]
4.30 to 4.60

Tell me pIC50 reported for O=C(O)c1ccc(C(=O)/C(=C\c2ccc(F)c([N+](=O)[O-])c2)SCc2ccc(C(F)(F)F)cc2)cc1 [Example 351]
5.00 to 6.00

Tell me pIC50 reported for O=C(O)c1ccc(C(=O)C(=Cc2ccc(Br)c([N+](=O)[O-])c2)SCc2ccc(F)cc2)cc1 [Example 252]
5.00 to 6.00

Tell me pIC50 reported for Cc1ccsc1C=C(SCc1ccccc1F)C(=O)c1ccc(Cl)cc1 [Example 134]
4.00 to 4.30

----------
Items are presented alongside their recorded IC50.
- Tested on: K562 (chronic myelogenous leukaemia)
- assay_method_text: Effect of compounds on tumor cell lines (assay of Latham et al.), K562
- Format: cell-based
- condition_notes: Table 1; K562 cells, examined 96 hours after treatment, 1 μM to 100 μM in DMSO; read-out: K 562 potency (IC50)

Field: example entries. Status: answers known.
compound	assay_value
O=C(C(=Cc1ccccc1O)Sc1ccccc1Br)c1ccc(Br)cc1	50 to 100 µM
Cc1ccc(SC(=Cc2ccc(Oc3ccccc3)cc2)C(=O)c2ccc(Cl)cc2)cc1	10 to 25 µM

Attention now turns to another entry.
Tell me IC50 reported for Cc1ccc(SC(=Cc2ccc(N(C)C)cc2)C(=O)c2ccc(Br)cc2)cc1
50 to 100 µM

----------
Items are presented alongside their recorded pIC50.
- System: DU145 (prostate cancer)
- assay_method_text: Effect of compounds on tumor cell lines (assay of Latham et al.), DU145
- Type: cell-based
- condition_notes: DU145 cells, 96 hours after treatment, 1 μM to 100 μM; read-out: DU 145 potency (IC50)
pIC50: −log10 of the molar value.

Field: example entries. Status: answers known.
compound	pIC50
Cc1ccc(C)c(C=C(SCc2ccc(F)cc2)C(=O)c2ccc(Br)cc2)c1	5.00 to 6.00
O=C(C(=Cc1ccc(Cl)cc1)SCc1ccc(Cl)cc1)c1ccccc1Cl	4.00 to 4.30
O=C(O)c1ccc(C(=O)/C(=C\c2ccc(Br)cc2)SCc2ccc(F)cc2)cc1	< 4.00

Tell me pIC50 reported for Cc1ccc(CS/C(=C/c2ccc(F)c([N+](=O)[O-])c2)C(=O)c2ccc(C(=O)O)cc2)cc1 [Example 347]
5.00 to 6.00

Tell me pIC50 reported for CCOC(=O)c1c(C)[nH]c(C=C(SCc2ccc(Br)cc2)C(=O)c2ccc(SCc3ccc(Br)cc3)c([N+](=O)[O-])c2)c1C
< 4.00

----------
Items are presented alongside their recorded IC50.
- Tested on: K562 (chronic myelogenous leukaemia)
- assay_method_text: Effect of compounds on tumor cell lines (assay of Latham et al.), K562
- Format: cell-based
- condition_notes: K562 cells, 96 hours after treatment, 1 μM to 100 μM; read-out: K 562 potency (IC50)

compound	IC50
O=C(O)c1ccc(C(=O)C(=Cc2ccccc2F)SCc2ccc(Br)cc2)cc1 [Example 306]	10 to 25 µM
O=C(/C(=C\c1cccc(Cl)c1Cl)SCc1ccc(Cl)cc1)c1ccc(Br)cc1 [Example 190]	10 to 25 µM
COc1ccc(C=C(SCc2ccc(F)cc2)C(=O)c2ccc(Br)cc2)cc1 [Example 265]	1 to 10 µM
Cc1ccc(CSC(=Cc2ccc(O)c(O)c2O)C(=O)c2ccc(Cl)cc2)cc1 [Example 270]	50 to 100 µM
O=C(O)c1ccc(C(=O)C(=Cc2ccc(Br)c([N+](=O)[O-])c2)SCc2ccc(Cl)cc2)cc1 [Example 213]	≤ 1 µM

Give IC50 for this entry on K562 (chronic myelogenous leukaemia): Cc1ccc(CSC(=Cc2ccc(F)c(C)c2)C(=O)c2ccc(Cl)cc2)cc1 [Example 291]
10 to 25 µM

Give IC50 for this entry on K562 (chronic myelogenous leukaemia): O=C(/C(=C\c1ccc(F)c([N+](=O)[O-])c1)SCc1ccc(F)cc1)c1ccccc1 [Example 344]
≤ 1 µM

Give IC50 for this entry on K562 (chronic myelogenous leukaemia): O=C(O)c1ccc(C(=O)C(=Cc2ccc(O)c([N+](=O)[O-])c2)SCc2ccc(F)cc2)cc1 [Example 262]
50 to 100 µM

----------
- Test system: DU145 (prostate cancer)
- assay_method_text: Effect of compounds on tumor cell lines (assay of Latham et al.), DU145
- Type: cell-based
- condition_notes: DU145 cells, 96 hours after treatment, 1 μM to 100 μM; read-out: DU 145 potency (IC50)
pIC50: −log10 of the molar value.
Items are presented alongside their recorded pIC50.

Field: example entries. Status: answers known.
test_smiles	metric	assay_value
Cc1ccc(C=C(SCc2ccc(Cl)cc2)C(=O)c2ccc(Cl)cc2)s1	pIC50	4.00 to 4.30
Cc1ccc(C=C(SCc2ccc(Cl)cc2)C(=O)c2ccc([N+](=O)[O-])cc2)s1	pIC50	4.30 to 4.60
CCN(CC)CCNC(=O)c1c(C)[nH]c(C=C(SCc2ccc(F)cc2)C(=O)c2ccc(C(=O)O)cc2)c1C	pIC50	4.00 to 4.30
O=C(O)c1ccc(C(=O)C(=Cc2ccc(O)c(Br)c2)SCc2ccc(Br)cc2)cc1	pIC50	4.30 to 4.60
CCN(CC)CCNC(=O)c1c(C)[nH]c(/C=C(/SCc2ccc(Br)cc2)C(=O)c2ccc(Br)cc2)c1C	pIC50	5.00 to 6.00

Tell me pIC50 reported for O=C(/C(=C\c1ccc(F)c([N+](=O)[O-])c1)SCc1ccc(F)cc1)c1ccccc1
5.00 to 6.00

Tell me pIC50 reported for CSc1ccc(C=C(SCc2ccc(Cl)cc2)C(=O)c2ccc(Cl)cc2)cc1
4.30 to 4.60

Tell me pIC50 reported for Cc1ccc(CSC(=Cc2c(O)cc(O)cc2O)C(=O)c2ccc(Cl)cc2)cc1
4.00 to 4.30

----------
Items are presented alongside their recorded IC50.
- Tested on: DU145 (prostate cancer)
- assay_method_text: Effect of compounds on tumor cell lines (assay of Latham et al.), DU145
- Format: cell-based
- condition_notes: DU145 cells, 96 hours after treatment, 1 μM to 100 μM; read-out: DU 145 potency (IC50)

Field: example entries. Status: answers known.
test_smiles	assay_value
CCOc1ccc(C=C(SCc2ccc(F)cc2)C(=O)c2ccc(Br)cc2)cc1OC	50 to 100 µM
O=C(/C(=C\c1ccc([N+](=O)[O-])c(O)c1)SCc1ccc(Br)cc1)c1ccc(N2CCCC2)cc1	> 100 µM
NS(=O)(=O)c1ccc(C(=O)/C(=C\c2ccc(F)c([N+](=O)[O-])c2)SCc2ccc(F)cc2)cc1	1 to 10 µM

Give IC50 for this entry on DU145 (prostate cancer): CN(C)c1ccc(C=C(SCc2ccccc2Cl)C(=O)c2ccc(Cl)cc2)cc1
> 100 µM

Give IC50 for this entry on DU145 (prostate cancer): O=C(C(=Cc1ccc(Cl)cc1)SCc1ccc(Cl)cc1)c1ccc(Cl)cc1
10 to 25 µM

Give IC50 for this entry on DU145 (prostate cancer): O=C(C(=Cc1ccc(O)cc1O)SCc1ccc(Cl)cc1)c1ccc(Cl)cc1
50 to 100 µM

Give IC50 for this entry on DU145 (prostate cancer): COc1ccc(C=C(SCc2ccc(Cl)cc2)C(=O)c2ccc(C(=O)O)cc2)cc1
25 to 50 µM

Give IC50 for this entry on DU145 (prostate cancer): CN(C)c1ccc(C=C(SCc2ccc(Cl)cc2)C(=O)c2ccc(Cl)cc2)cc1
> 100 µM

Give IC50 for this entry on DU145 (prostate cancer): O=C(C(=Cc1c(O)cc(O)cc1O)SCc1ccc(Cl)cc1)c1ccc(Cl)cc1
> 100 µM

Give IC50 for this entry on DU145 (prostate cancer): O=C(/C(=C\c1ccc([N+](=O)[O-])c(O)c1)SCc1ccc(Br)cc1)c1ccc(C(F)(F)F)cc1
1 to 10 µM

Give IC50 for this entry on DU145 (prostate cancer): CSc1ccc(C=C(SCc2ccc(Cl)cc2)C(=O)c2ccc(C(=O)O)cc2)cc1
> 100 µM

Give IC50 for this entry on DU145 (prostate cancer): O=C(/C(=C\c1ccc(O)c([N+](=O)[O-])c1)SCc1ccc(Br)cc1)c1cc(Cl)ccc1O
25 to 50 µM

Give IC50 for this entry on DU145 (prostate cancer): CC1=CC(=O)C(C)=C(C(C)(C)CC(=O)Oc2ccc(C(=O)/C(=C\c3ccc(F)c([N+](=O)[O-])c3)SCc3ccc(F)cc3)cc2)C1=O
1 to 10 µM

Give IC50 for this entry on DU145 (prostate cancer): O=C(O)c1ccc(C(=O)C(=Cc2ccc(Br)c([N+](=O)[O-])c2)SCc2ccc(Cl)cc2)cc1
1 to 10 µM

Give IC50 for this entry on DU145 (prostate cancer): CCN(CC)CCNC(=O)c1c(C)[nH]c(/C=C(/SCc2ccc(Br)cc2)C(=O)c2ccc(C(=O)O)cc2)c1C
50 to 100 µM

Give IC50 for this entry on DU145 (prostate cancer): O=C(C(=Cc1ccc(F)c([N+](=O)[O-])c1)SCc1ccc(Br)cc1)c1c(F)c(F)c(F)c(F)c1F
1 to 10 µM
